Entry source: the METLIN SMRT retention time set (Domingo-Almenara et al. 2019)

Test: gradient 5% acetonitrile 3 min, to 50% in 2 min, to 85% in 15 min, held 3 min, 100 µL/min
Settings: column: Zorbax Extend-C18 2.1 x 50 mm; eluents: water / acetonitrile, 0.1% formic acid

compound	unitInfo	RP-LC retention time
O=C(NCC1CCCO1)c1ccc2nc(CCc3ccccc3)oc2c1 (centres undefined)	s	840
COc1ccc(OCc2noc(CNS(=O)(=O)CCN3C(=O)CCCC3=O)n2)cc1	s	693
Cc1ccc(S(=O)(=O)CCc2noc(C(=O)NCCCN3CCCC(C)C3)n2)cc1 (centres undefined)	s	632
c1ccc(-c2nc(-c3ccncc3)no2)c(OC2CCN(CC3CC3)C2)c1 (centres undefined)	s	642
COCCc1noc(C2CN(C(=O)c3cnc(C)cn3)C2)n1	s	636
COc1ccccc1Cc1noc(C2CN(C(=O)c3ccc4nsnc4c3)C2)n1	s	814
Cc1nc(-c2ccccc2)c(-c2ccncc2)o1	s	855
Cc1c(C(=O)N2CCN(C(=O)c3ccco3)CC2)[nH]c2ccccc12	s	729
CCCCS(=O)(=O)N1CCN(c2ccc(Nc3cc(C)ccn3)nn2)CC1	s	585
CCOc1cc(=O)c(C(N)=O)nn1-c1ccc(C)cc1	s	613
CCCNC(=O)C1CCCN(c2ccc(SCC(=O)NCc3ccc(C)cc3)nn2)C1 (centres undefined)	s	656
Cc1ccc(CNC(=O)C2(C)CCN(S(=O)(=O)c3ccc(Br)cc3)CC2)cc1	s	1030
Cc1cccc(NC(=O)NCC(c2cccnc2)c2c[nH]c3ccccc23)c1C (centres undefined)	s	661
Cn1cccc1C(=O)C(=O)Nc1ccc2c(c1)OCCO2	s	842
CCN(CC)CCNC(=O)c1cc(Br)c(N)cc1OC	s	645
COc1ccc(-c2nc(Cc3noc(-c4ccc(C#N)cc4)n3)c(C)o2)cc1	s	1070
Cc1ccc(C)c(N2CCN(S(=O)(=O)c3ccc(-c4nnc(C5CC5)o4)o3)CC2)c1	s	1130
COc1cc(C(=O)N2CCC3(CC2)N=C(c2ccc(Cl)cc2)C(=O)N3)cc(OC)c1OC	s	812
CCn1c(=O)sc2cc(S(=O)(=O)N3CCC(C(=O)NCc4cccc(OC)c4)CC3)ccc21	s	1000
O=c1c2oc3ccccc3c2ncn1Cc1nc(-c2cccc(Br)c2)no1	s	1060
Cc1nnc(C2CCCCCN2C(=O)c2ocnc2C)o1 (centres undefined)	s	628
CCOC(=O)c1cc(OC)c(OC)cc1NC(=O)c1cc(OC)c(OC)c(OC)c1	s	1030
COc1cc(Nc2nc(C(=O)N3CCCCC3)cc3occc23)cc(OC)c1OC	s	808
COCCN1C(=O)c2ccccc2C(C(=O)NCc2ccccc2)C12CCCCC2 (centres undefined)	s	856
CCOC(=O)c1c(C)[nH]c(C(=O)N2CCCC(C(=O)NCc3cccc(Cl)c3)C2)c1C (centres undefined)	s	848
CCCN(Cc1ccc(OC)cc1)Cc1cc(=O)n2cc(Cl)ccc2n1	s	654
COc1ccc(CNS(=O)(=O)c2ccc(-c3nnc(C4CCC4)o3)o2)cc1	s	873
CCOc1ccc(CNC(=O)C2CCN(S(=O)(=O)c3cn(CC)cn3)CC2)cc1	s	696
COc1ccc(NC(=O)C(=O)c2cccn2C)cc1OC	s	784
CCC(C)NC(=O)C1CCN(S(C)(=O)=O)c2cc(Cl)ccc2O1 (centres undefined)	s	862
O=C(C1CCN(c2ncnc3c2oc2ccccc23)CC1)N1CCCC1	s	654
COc1ccc(OC)c(-c2ccc(SCC(=O)Nc3cc(C)no3)nn2)c1	s	754
CCc1cccc(NS(=O)(=O)c2cc3n(c2)CCN(C(C)C)C3=O)c1	s	816
CCCNC(=O)c1ncn2c1C(=O)N(C1CC1)C(C)(C(=O)NCc1cccc(C)c1)C2 (centres undefined)	s	717
O=C(Nc1cnn(-c2ncncc2N2CCCCC2)c1)c1ccc2c(c1)OCO2	s	702
CCc1noc(NC(C)=O)c1-c1ccc(C)c(S(=O)(=O)N2CC=C(c3ccccc3)CC2)c1	s	1020
COc1cc(OC)c(NC(=O)c2cc3c(n(-c4ccc(F)cc4)c2=O)CCCC3=O)cc1Cl	s	970
O=C(CCCCCN1CCN(c2ccccc2-c2ccccc2)CC1)NC1CCCc2ccccc21 (centres undefined)	s	926
Cc1ccc(S(=O)(=O)N2CCC(CCNC(=O)NCCC(C)C)CC2)cc1	s	715
